- ASSAY_CONTEXT: human
Overview of recorded Plasma stability for various compounds
READOUT_KIND: Plasma stability (%)

| MOL | OBSERVED_VALUE |
| --- | --- |
| Cc1ncsc1-c1ccc(CNC(=O)[C@@H]2C[C@@H](O)CN2C(=O)[C@@H](NC(=O)CCCCCOC(=O)C2CCCCC2)C(C)(C)C)cc1 | 14 |
| CCCC(=O)OCCCCCC(=O)N[C@H](C(=O)N1C[C@H](O)C[C@H]1C(=O)NCc1ccc(-c2scnc2C)cc1)C(C)(C)C | 13 |
| Cc1ncsc1-c1ccc(CNC(=O)[C@@H]2C[C@@H](O)CN2C(=O)[C@@H](NC(=O)CCCCCOC(=O)CC23CC4CC(CC(C4)C2)C3)C(C)(C)C)cc1 | 80 |
| Cc1ncsc1-c1ccc(CNC(=O)[C@@H]2C[C@@H](O)CN2C(=O)[C@@H](NC(=O)CCCCCNC(=O)CC(c2ccccc2)c2ccccc2)C(C)(C)C)cc1 | 149 |

====

Overview of recorded Papp A→B at 5 µM for various compounds
- Test system: P-gp (human MDR1)
- ASSAY_PROTOCOL: in vitro
- ASSAY_CONTEXT: dog, MDCK-MDR1

| COMPOUND | Papp A→B at 5 µM, ×10⁻⁶ cm/s |
| --- | --- |
| Cc1ncsc1-c1ccc(CNC(=O)[C@@H]2C[C@@H](O)CN2C(=O)[C@@H](NC(=O)CCCCCNC(=O)C2CCCCC2)C(C)(C)C)cc1 | 0.3 |
| Cc1ncsc1-c1ccc(CNC(=O)[C@@H]2C[C@@H](O)CN2C(=O)[C@@H](NC(=O)CCCCCOC(=O)C2CCCCC2)C(C)(C)C)cc1 | 0.3 |
| CCCC(=O)NCCCCCC(=O)N[C@H](C(=O)N1C[C@H](O)C[C@H]1C(=O)NCc1ccc(-c2scnc2C)cc1)C(C)(C)C | 0.4 |
| C[C@H]1O[C@@H](O[C@H]2[C@@H](O)C[C@H](O[C@H]3[C@@H](O)C[C@H](O[C@H]4CC[C@@]5(C)[C@H](CC[C@@H]6[C@@H]5C[C@@H](O)[C@]5(C)[C@@H](C7=CC(=O)OC7)CC[C@]65O)C4)O[C@@H]3C)O[C@@H]2C)C[C@H](O)[C@@H]1O [Digoxin, reference compound] | 0.8 |
| COCC(=O)OCCCCCC(=O)N[C@H](C(=O)N1C[C@H](O)C[C@H]1C(=O)NCc1ccc(-c2scnc2C)cc1)C(C)(C)C | 0.4 |
| Cc1ncsc1-c1ccc(CNC(=O)[C@@H]2C[C@@H](O)CN2C(=O)[C@@H](NC(=O)CCCCCNC(=O)CC23CC4CC(CC(C4)C2)C3)C(C)(C)C)cc1 | 0.2 |
| Cc1ncsc1-c1ccc(CNC(=O)[C@@H]2C[C@@H](O)CN2C(=O)[C@@H](NC(=O)CCCCCNC(=O)CC(c2ccccc2)c2ccccc2)C(C)(C)C)cc1 | 0.1 |
| COCC(=O)NCCCCCC(=O)N[C@H](C(=O)N1C[C@H](O)C[C@H]1C(=O)NCc1ccc(-c2scnc2C)cc1)C(C)(C)C | 0.5 |
| Cc1ncsc1-c1ccc(CNC(=O)[C@@H]2C[C@@H](O)CN2C(=O)[C@@H](NC(=O)CCCCCOC(=O)CC(c2ccccc2)c2ccccc2)C(C)(C)C)cc1 | 0.2 |
| CC(C)NCC(O)COc1cccc2ccccc12 (stereo not shown) [Propranolol, reference compound] | 49.1 |
| Cc1ncsc1-c1ccc(CNC(=O)[C@@H]2C[C@@H](O)CN2C(=O)[C@@H](NC(=O)CCOCCNC(=O)Cc2ccccc2)C(C)(C)C)cc1 | 0.4 |
| CCCC(=O)OCCCCCC(=O)N[C@H](C(=O)N1C[C@H](O)C[C@H]1C(=O)NCc1ccc(-c2scnc2C)cc1)C(C)(C)C | 0.9 |
| Cc1ncsc1-c1ccc(CNC(=O)[C@@H]2C[C@@H](O)CN2C(=O)[C@@H](NC(=O)CCCCCNC(=O)Cc2ccccc2)C(C)(C)C)cc1 | 0.7 |

====

- Tested on: P-gp (human MDR1)
- ASSAY_PROTOCOL: in vitro
- ASSAY_CONTEXT: dog, MDCK-MDR1, Efflux ratio B-A/A-B, MDCK-MDR1, 5 µM, N = 2
READOUT_KIND: efflux ratio at 5 µM

| MOL | SUBJECT_OF_TEST | OBSERVED_VALUE |
| --- | --- | --- |
| Cc1ncsc1-c1ccc(CNC(=O)[C@@H]2C[C@@H](O)CN2C(=O)[C@@H](NC(=O)CCCCCNC(=O)Cc2ccccc2)C(C)(C)C)cc1 | P-gp (human MDR1) | 12 |
| CCCC(=O)NCCCCCC(=O)N[C@H](C(=O)N1C[C@H](O)C[C@H]1C(=O)NCc1ccc(-c2scnc2C)cc1)C(C)(C)C | P-gp (human MDR1) | 7 |
| Cc1ncsc1-c1ccc(CNC(=O)[C@@H]2C[C@@H](O)CN2C(=O)[C@@H](NC(=O)CCCCCNC(=O)CC(c2ccccc2)c2ccccc2)C(C)(C)C)cc1 | P-gp (human MDR1) | 133 |

====

- ASSAY_PROTOCOL: in vitro
- ASSAY_CONTEXT: PAMPA

| MOLECULE | Papp |
| --- | --- |
| CCCC(=O)OCCCCCC(=O)N[C@H](C(=O)N1C[C@H](O)C[C@H]1C(=O)NCc1ccc(-c2scnc2C)cc1)C(C)(C)C [Compound 9] | 6.5 ×10⁻⁶ cm/s |

====

- Tested on: P-gp (human MDR1)
- ASSAY_PROTOCOL: in vitro
- ASSAY_CONTEXT: dog, MDCK-MDR1, Efflux ratio B-A/A-B, MDCK-MDR1, 5 µM, N = 2
Overview of recorded efflux ratio at 5 µM for various molecules

| MOLECULE | efflux ratio at 5 µM |
| --- | --- |
| COCC(=O)NCCCCCC(=O)N[C@H](C(=O)N1C[C@H](O)C[C@H]1C(=O)NCc1ccc(-c2scnc2C)cc1)C(C)(C)C | 3 |
| CCCC(=O)OCCCCCC(=O)N[C@H](C(=O)N1C[C@H](O)C[C@H]1C(=O)NCc1ccc(-c2scnc2C)cc1)C(C)(C)C | 55 |
| Cc1ncsc1-c1ccc(CNC(=O)[C@@H]2C[C@@H](O)CN2C(=O)[C@@H](NC(=O)CCCCCOC(=O)CC(c2ccccc2)c2ccccc2)C(C)(C)C)cc1 | 84 |
| Cc1ncsc1-c1ccc(CNC(=O)[C@@H]2C[C@@H](O)CN2C(=O)[C@@H](NC(=O)CCCCCNC(=O)C2CCCCC2)C(C)(C)C)cc1 | 33 |
| CC(C)NCC(O)COc1cccc2ccccc12 (stereo not shown) [Propranolol, reference compound] | 0.8 |
| COCC(=O)OCCCCCC(=O)N[C@H](C(=O)N1C[C@H](O)C[C@H]1C(=O)NCc1ccc(-c2scnc2C)cc1)C(C)(C)C | 26 |
| Cc1ncsc1-c1ccc(CNC(=O)[C@@H]2C[C@@H](O)CN2C(=O)[C@@H](NC(=O)CCCCCNC(=O)CC23CC4CC(CC(C4)C2)C3)C(C)(C)C)cc1 | 158 |
| Cc1ncsc1-c1ccc(CNC(=O)[C@@H]2C[C@@H](O)CN2C(=O)[C@@H](NC(=O)CCOCCNC(=O)Cc2ccccc2)C(C)(C)C)cc1 | 13 |
| C[C@H]1O[C@@H](O[C@H]2[C@@H](O)C[C@H](O[C@H]3[C@@H](O)C[C@H](O[C@H]4CC[C@@]5(C)[C@H](CC[C@@H]6[C@@H]5C[C@@H](O)[C@]5(C)[C@@H](C7=CC(=O)OC7)CC[C@]65O)C4)O[C@@H]3C)O[C@@H]2C)C[C@H](O)[C@@H]1O [Digoxin, reference compound] | 26.3 |
| Cc1ncsc1-c1ccc(CNC(=O)[C@@H]2C[C@@H](O)CN2C(=O)[C@@H](NC(=O)CCCCCOC(=O)C2CCCCC2)C(C)(C)C)cc1 | 142 |

====

- SUBJECT_OF_TEST: VHL (VCB, VHL:ElonginC:ElonginB) (Homo sapiens)
- Construct: His6 (N, cleaved yes); made in house; host or cells: Escherichia coli
- ASSAY_PROTOCOL: FP competition binding, binary binding to VHL
- ASSAY_CONTEXT: compound alone to VHL, FP competition with FAM-HIF-1α peptide, mean ± SEM; read-out: Kd binary

| MOL | Kd |
| --- | --- |
| Cc1ncsc1-c1ccc(CNC(=O)[C@@H]2C[C@@H](O)CN2C(=O)[C@@H](NC(=O)CCOCCOCCOCCNC(=O)Cc2ccccc2)C(C)(C)C)cc1 | 138 nM |
| Cc1ncsc1-c1ccc(CNC(=O)[C@@H]2C[C@@H](O)CN2C(=O)[C@@H](NC(=O)CCOCCOC(=O)Cc2ccccc2)C(C)(C)C)cc1 | ~200 nM |
| Cc1ncsc1-c1ccc(CNC(=O)[C@@H]2C[C@@H](O)CN2C(=O)[C@@H](NC(=O)CCCCCOC(=O)Cc2ccccc2)C(C)(C)C)cc1 | 136 nM |
| Cc1ncsc1-c1ccc(CNC(=O)[C@@H]2C[C@@H](O)CN2C(=O)[C@@H](NC(=O)CCOCCNC(=O)Cc2ccccc2)C(C)(C)C)cc1 | 171 nM |
| Cc1ncsc1-c1ccc(CNC(=O)[C@@H]2C[C@@H](O)CN2C(=O)[C@@H](NC(=O)CCOCCOCCOC(=O)Cc2ccccc2)C(C)(C)C)cc1 | 197 nM |
